Reference source: PubChem BioAssay AID2158

Answer each item with its documented Potency.
Molecular target: Cruzipain (Trypanosoma cruzi) (UniProt P25779)
Sequence (P25779 123-467 limits assumed): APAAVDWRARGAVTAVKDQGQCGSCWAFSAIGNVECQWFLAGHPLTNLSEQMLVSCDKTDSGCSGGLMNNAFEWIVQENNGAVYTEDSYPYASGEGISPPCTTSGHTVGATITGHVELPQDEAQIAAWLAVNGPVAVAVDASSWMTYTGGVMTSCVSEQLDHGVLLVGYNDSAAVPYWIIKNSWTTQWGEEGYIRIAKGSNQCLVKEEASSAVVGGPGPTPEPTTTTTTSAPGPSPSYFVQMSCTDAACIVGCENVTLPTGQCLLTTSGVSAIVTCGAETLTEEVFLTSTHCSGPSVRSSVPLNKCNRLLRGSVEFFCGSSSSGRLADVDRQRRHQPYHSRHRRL
Assay: Confirmation qHTS Assay for Inhibitors of Cruzain; also: potency is read from the fitted curve at half-maximal effect; nearly all actives have a fitted effect of over 40% in size
Settings: purified cruzain, Z-FR-AMC fluorescence, 0.01% Triton
Results filed as inconclusive are left out. Active and inactive are the calls of the source. Calls follow the shape of the dose curve; as a rule, active = well fitted inhibition curve with a large enough effect; inconclusive = small, poorly fitted or top-dose-only effect; inactive = no such curve, though single readings can be large or run the other way.

In: So what Potency did `CCCn1c2ccc(F)cc2c2nnc(SCCN3CCCCC3)nc21` get with Cruzipain (Trypanosoma cruzi) (UniProt P25779)?
Out: 12.6 µM (active)

In: Lookup `N#Cc1nc(N2CCCCC2)nc(N2CCCCC2)n1`
Out: 8.91 µM (active)

In: Lookup `O=C(CNC(=O)C1CCCCC1)OCC(=O)c1ccccc1`
Out: 6.31 µM (active)

In: Lookup `Cc1cc(=O)oc2cc(OCC(=O)N3CCOCC3)ccc12`
Out: 8.91 µM (active)

In: Lookup `O=C(NCc1ccco1)c1ccc2nc3sc4c(c3c(=O)n2c1)CCCC4`
Out: 28.2 µM (active)

In: Lookup `COc1ccc(-c2cnnn2-c2ccc(NC(=O)/C=C/c3ccc(OC)c(OC)c3)cc2)cc1`
Out: 15.8 µM (active)

In: Lookup `N#Cc1nc(Nc2ccc(F)cc2)nc(NC2CCCC2)n1`
Out: 0.126 µM (active)

In: Lookup `Cc1ccccc1OCC(=O)NCC(=O)OCC(=O)c1ccc([N+](=O)[O-])cc1`
Out: 35.5 µM (active)

In: Lookup `O=C(COC(=O)CCSc1ccccc1Cl)Nc1ccc(F)cc1F`
Out: 14.1 µM (active)

In: Lookup `Cc1ccccc1NC(=O)CSc1nnc(-c2ccco2)c(-c2ccco2)n1`
Out: 14.1 µM (active)

In: Lookup `COc1cc2cc(CN(Cc3nnnn3Cc3ccco3)C3CCCCC3)c(=O)[nH]c2cc1OC`
Out: 14.1 µM (active)
